The reported measurements were obtained from ChEMBL document CHEMBL5154815.

These records show pKd for Atrial natriuretic peptide receptor 3 (Homo sapiens, UniProt P17342).
One number for each entry, as −log10 of the molar value.

>  <SMILES>
CC(=O)Nc1ccc(Nc2ncnc(N[C@@H](CCc3ccccc3)C(=O)OC(C)(C)C)n2)cc1

>  <pKd>
4.62

$$$$
>  <SMILES>
CC(=O)Nc1ccc(Nc2ncnc(N[C@@H](Cc3ccccc3)C(=O)OC(C)(C)C)n2)cc1

>  <pKd>
4.50

$$$$
>  <SMILES>
CC(=O)Nc1ccc(Nc2ncnc(N[C@@H](CC(C)C)C(=O)OC(C)(C)C)n2)cc1

>  <pKd>
4.51

$$$$

# per-item lookup of pKd; items listed below
1. CC(=O)Nc1ccc(Nc2ncnc(NCCC(=O)OC(C)(C)C)n2)cc1
2. CC(C)C[C@H](Nc1nc(Cl)nc(Nc2ccc(NS(=O)(=O)c3ccccc3)cc2)n1)C(=O)OC(C)(C)C
3. CC(=O)Nc1ccc(Nc2ncnc(N[C@@H](CC(C)C)C(=O)OC(C)C)n2)cc1
4. CC(=O)Nc1ccc(Nc2ncnc(N[C@H](C(=O)OC(C)(C)C)C3CCCCC3)n2)cc1
5. CC(=O)Nc1ccc(Nc2ncnc(NCC(=O)OC(C)(C)C)n2)cc1
6. CC(=O)Nc1ccc(Nc2ncnc(N[C@H](C(=O)OC(C)(C)C)C(C)C)n2)cc1

OUT:
3.84
4.00
4.07
4.55
3.08
4.10
